Target: AgBbc1
Assay: SPOT peptide array binding signal intensity (averaged, normalized) (arbitrary units (background-subtracted, floor 0; scale differs between SH3 domains)); higher = stronger binding of the SH3 domain to the peptide
I'd be grateful if you could share measured SPOT peptide array binding signal intensity for these entries.

Some entries whose results are on file:
GET /values?readout=SPOT peptide array binding signal intensity&item= "PPIPIVPSSPAPPLP"
≤ 0

GET /values?readout=SPOT peptide array binding signal intensity&item= "AAHKTKPSIPPKKVE"
≤ 0

GET /values?readout=SPOT peptide array binding signal intensity&item= "EAEEAAPQLPSRSSA"
≤ 0

Each binder below has a reported value. Please supply its SPOT peptide array binding signal intensity.
1. KIRRSSLMIPNPQQF
2. NFLRLLIGLPSQNEL
3. NMLKKKPLKKPLKRF
4. NNQRRKPLLLNIGDH

1: 56.5; 2: 4.25; 3: 12.5; 4: ≤ 0
